tested-on: GPR3 (Homo sapiens, UniProt P46089)
Construct: expressed in transfected cells; host or cells: CHO cells
Sequence (P46089 whole entry, species assumed): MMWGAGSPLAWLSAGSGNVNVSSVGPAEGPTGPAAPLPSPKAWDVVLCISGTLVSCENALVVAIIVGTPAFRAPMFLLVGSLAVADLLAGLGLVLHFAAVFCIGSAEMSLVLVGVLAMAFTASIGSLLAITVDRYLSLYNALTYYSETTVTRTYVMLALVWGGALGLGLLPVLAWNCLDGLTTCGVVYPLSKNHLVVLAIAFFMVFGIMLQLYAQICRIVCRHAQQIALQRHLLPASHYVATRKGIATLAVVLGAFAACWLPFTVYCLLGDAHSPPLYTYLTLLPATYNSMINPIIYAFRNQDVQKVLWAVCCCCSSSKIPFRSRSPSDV
protocol: GPR3 antagonist functional cAMP assay (LANCE Ultra cAMP TR-FRET, CHO cells stably expressing GPR3)
Type: cell-based
condition-details: CHO cells stably expressing GPR3, cAMP assay
reported-metric: IC50

CC(C)(O)C(=O)c1cc2nc(N3CCN(Cc4ccc(F)cc4F)CC3)c(-c3cnn(CF)c3)nc2cn1 : 1 to 30 µM
CC(=O)N1CCc2nc(N3CCC(Oc4ccc(F)cc4F)CC3)c(C3CCN(C4COC4)C3)nc2C1 (centres unmarked) : 1 to 30 µM
Cn1cc(-c2nc3cc(C(=O)C(C)(C)O)ncc3nc2N2CCN(Cc3ccc(F)cc3F)CC2)cn1 : 1 to 30 µM

In: I am curious: what IC50 value has been reported for CCn1cc(-c2nc3c(nc2N2CCC(Oc4ccc(F)cc4F)CC2)CCN(C(=O)C(O)C(C)(C)O)C3)cn1 (centres unmarked) ?
Out: 1 to 30 µM

In: I am curious: what IC50 value has been reported for CC(C)(O)C(=O)c1cc2nc(N3CCN(Cc4ccccc4F)CC3)c(-c3cnn(CF)c3)nc2cn1 ?
Out: 1 to 30 µM

In: I am curious: what IC50 value has been reported for CC(=O)N1CCc2nc(N3CCN(Cc4ccc[nH]c4=O)CC3)c(-c3cnn(C)c3)nc2C1 ?
Out: ≥ 30 µM

In: I am curious: what IC50 value has been reported for CC(=O)N1CCc2nc(N3CCN(C(=O)c4ccc(Cl)cc4)CC3)c(-c3cnn(C)c3)nc2C1 ?
Out: 1 to 30 µM

In: I am curious: what IC50 value has been reported for CCn1cc(-c2nc3c(nc2N2CCC(Oc4ccc(F)cc4F)CC2)CCN(C(=O)C2COCCN2C)C3)cn1 (centres unmarked) ?
Out: 1 to 30 µM

In: I am curious: what IC50 value has been reported for CC(C)(O)[C@H](O)c1cc2nc(N3CCN(Cc4ccc(F)cc4F)CC3)c(-c3cnn(C4CC4)c3)nc2cn1 (single isomer, unassigned) ?
Out: 1 to 30 µM

In: I am curious: what IC50 value has been reported for CC(=O)N1CCc2nc(N3CCN(Cc4ccncc4)CC3)c(-c3cnn(C)c3)nc2C1 ?
Out: 1 to 30 µM

In: I am curious: what IC50 value has been reported for CC(C)(O)C(O)c1cc2nc(N3CCN(Cc4ccccc4F)CC3)c(-c3cnn(C(F)F)c3)nc2cn1 (centres unmarked) ?
Out: 1 to 30 µM

In: I am curious: what IC50 value has been reported for CC(C)(O)C(O)c1cc2nc(-c3cnn(C4CC4)c3)c(N3CCC(Oc4ccc(F)cc4F)CC3)nc2cn1 (single isomer, unassigned) [Compound 591] ?
Out: 1 to 30 µM

In: I am curious: what IC50 value has been reported for CC(=O)N1CCc2nc(N3CCN(Cc4ccccc4Br)CC3)c(-c3cnn(C)c3)nc2C1 ?
Out: 1 to 30 µM

In: I am curious: what IC50 value has been reported for CC(=O)N1CCc2nc(N3CCC(Oc4ccc(Br)cn4)CC3)c(-c3cnn(C)c3)nc2C1 ?
Out: 1 to 30 µM

Where these numbers come from: patent US20260042755A1
